This listing pairs molecules with measured Potency.
- MEASUREMENT TARGET: histamine H4 receptor (Homo sapiens)
- Construct: expressed in transfected cells
- Sequence (Q9H3N8 whole entry, species assumed): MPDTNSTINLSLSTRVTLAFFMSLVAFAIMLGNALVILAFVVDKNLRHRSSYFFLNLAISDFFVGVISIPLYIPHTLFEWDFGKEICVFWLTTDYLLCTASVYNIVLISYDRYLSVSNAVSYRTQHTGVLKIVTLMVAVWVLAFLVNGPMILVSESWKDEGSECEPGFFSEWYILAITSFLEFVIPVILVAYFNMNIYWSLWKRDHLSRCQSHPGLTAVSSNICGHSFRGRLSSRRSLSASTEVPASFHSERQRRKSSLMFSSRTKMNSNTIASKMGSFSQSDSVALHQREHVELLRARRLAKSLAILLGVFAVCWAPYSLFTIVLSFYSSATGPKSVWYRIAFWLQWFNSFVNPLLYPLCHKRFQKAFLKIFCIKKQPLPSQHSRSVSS
- METHOD: in vitro assay of histamine H4 activity using FLIPR-Ca+2 flux
- Format: cell-based
- ASSAY CONDITIONS: HEK-293 cells stably expressing histamine H4 receptor and Gαqi5, Fluo-4; Kb for antagonists and inverse agonists, EC50 for partial agonists
// note: answer is a bare numeric in nM

{"MOLECULE": "CN[C@@H]1CCN(c2nc(N)nc3c2CC[C@@H]2CCCC[C@@H]32)C1 (mixture of isomers)", "MEASURED PROPERTY": "Potency", "EXPERIMENTAL RESULT": 1.4}
{"MOLECULE": "Nc1nc2c(c(N3CCNCC3)n1)CCC1=C2[C@@H]2CCCC[C@@H]2O1 (single isomer, unassigned)", "MEASURED PROPERTY": "Potency", "EXPERIMENTAL RESULT": 5.9}
{"MOLECULE": "CCNC1CN(c2nc(N)nc3c2CC[C@@H]2CCCC[C@@H]32)C1.O=C(O)C(F)(F)F.O=C(O)C(F)(F)F (relative stereo)", "MEASURED PROPERTY": "Potency", "EXPERIMENTAL RESULT": 3.2}

Note: attention shifts to another entry.
**Query** Specify measured Potency for CN[C@@H]1CCN(c2nc(N)nc3c2CCCC2C4C=CC(CC4)C32)C1 (stereo partly shown) .
**Result** 24.0
